Quick reference: IC50 of the listed items.
target: Vascular endothelial growth factor receptor 2 (Homo sapiens, UniProt P35968); assay: Inhibition of recombinant human N-terminal GST-fused KDR (D807 to V1356 residues) expressed in baculovirus infected […] insect Sf9 cells using poly-EY as substrate after 240 mins by luciferase coupled chemiluminescence assay
Sequence (P35968 whole entry, the tested form may be a part): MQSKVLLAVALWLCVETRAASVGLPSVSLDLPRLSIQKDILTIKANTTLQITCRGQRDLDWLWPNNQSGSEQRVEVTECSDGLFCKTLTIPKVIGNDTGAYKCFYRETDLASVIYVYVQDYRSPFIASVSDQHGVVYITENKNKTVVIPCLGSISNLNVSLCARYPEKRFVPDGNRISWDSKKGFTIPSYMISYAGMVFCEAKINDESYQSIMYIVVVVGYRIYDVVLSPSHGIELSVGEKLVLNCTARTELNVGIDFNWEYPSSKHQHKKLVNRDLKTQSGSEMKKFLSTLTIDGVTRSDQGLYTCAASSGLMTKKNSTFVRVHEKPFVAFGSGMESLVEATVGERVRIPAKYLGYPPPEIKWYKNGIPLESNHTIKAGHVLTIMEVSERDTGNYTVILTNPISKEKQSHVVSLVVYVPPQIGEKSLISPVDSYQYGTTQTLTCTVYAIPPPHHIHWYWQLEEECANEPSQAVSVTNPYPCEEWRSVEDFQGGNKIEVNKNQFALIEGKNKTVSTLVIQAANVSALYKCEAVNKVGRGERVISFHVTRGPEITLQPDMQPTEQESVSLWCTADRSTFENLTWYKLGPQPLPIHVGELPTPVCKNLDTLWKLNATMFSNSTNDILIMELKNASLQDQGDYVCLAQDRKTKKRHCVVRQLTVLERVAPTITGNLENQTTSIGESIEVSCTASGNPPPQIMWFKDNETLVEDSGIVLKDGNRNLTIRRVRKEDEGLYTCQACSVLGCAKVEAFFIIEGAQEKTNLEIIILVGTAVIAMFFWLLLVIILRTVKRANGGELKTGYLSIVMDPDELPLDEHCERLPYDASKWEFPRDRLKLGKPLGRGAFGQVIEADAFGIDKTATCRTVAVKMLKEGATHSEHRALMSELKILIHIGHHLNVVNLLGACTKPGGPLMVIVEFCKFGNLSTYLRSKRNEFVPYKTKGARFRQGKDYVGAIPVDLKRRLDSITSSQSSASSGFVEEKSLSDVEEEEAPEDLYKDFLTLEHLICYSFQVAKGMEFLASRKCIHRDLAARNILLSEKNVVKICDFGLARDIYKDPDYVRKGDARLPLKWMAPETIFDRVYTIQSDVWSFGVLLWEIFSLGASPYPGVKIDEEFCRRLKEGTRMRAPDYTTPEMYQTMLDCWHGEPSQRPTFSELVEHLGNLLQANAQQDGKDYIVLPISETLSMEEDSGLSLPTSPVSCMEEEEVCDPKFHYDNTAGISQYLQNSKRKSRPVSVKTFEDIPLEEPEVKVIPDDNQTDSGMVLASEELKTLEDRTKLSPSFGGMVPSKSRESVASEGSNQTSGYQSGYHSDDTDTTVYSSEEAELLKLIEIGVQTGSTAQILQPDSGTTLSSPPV

molecule	target.system	IC50
COc1cc2c(Nc3ccc(Cl)c(Cl)c3)ncnc2cc1OCC1CN(C(=O)Cc2ccc(Cl)cc2)CCO1 (stereo not drawn)	Vascular endothelial growth factor receptor 2 (Homo sapiens, UniProt P35968)	0.05 to 1 µM
COc1cc2c(Nc3ccc(Br)c(Cl)c3)ncnc2cc1O[C@H]1CO[C@H]2[C@@H]1OC[C@@H]2S(C)(=O)=O	Vascular endothelial growth factor receptor 2 (Homo sapiens, UniProt P35968)	1 to 20 µM
COc1cc2c(Nc3ccc(Cl)c(Cl)c3)ncnc2cc1OCc1noc(C2CCCN2C)n1 (stereo not drawn)	Vascular endothelial growth factor receptor 2 (Homo sapiens, UniProt P35968)	0.05 to 1 µM
CC#CCN1CCOC(COc2cc3ncnc(Nc4ccc(Cl)c(Cl)c4)c3cc2OC)C1 (stereo not drawn)	Vascular endothelial growth factor receptor 2 (Homo sapiens, UniProt P35968)	0.05 to 1 µM
COc1cc2c(Nc3ccc(Cl)c(Cl)c3)ncnc2cc1OCC1CN(S(=O)(=O)c2ccccc2)CCO1 (stereo not drawn)	Vascular endothelial growth factor receptor 2 (Homo sapiens, UniProt P35968)	0.05 to 1 µM
COc1cc2c(Nc3cc(Cl)c(Br)cc3F)ncnc2cc1OC[C@@H]1CN2CCC[C@H]2CO1	Vascular endothelial growth factor receptor 2 (Homo sapiens, UniProt P35968)	< 0.05 µM
CN[C@H]1CO[C@H]2[C@@H]1OC[C@@H]2Oc1cc2ncnc(Nc3ccc(Br)c(Cl)c3)c2cc1OC	Vascular endothelial growth factor receptor 2 (Homo sapiens, UniProt P35968)	1 to 20 µM
COc1cc2c(Nc3ccc(Cl)c(Cl)c3)ncnc2cc1OCc1cc(F)cc2c1OCOC2	Vascular endothelial growth factor receptor 2 (Homo sapiens, UniProt P35968)	1 to 20 µM

Item: COc1cc2c(Nc3ccc(Br)c(Cl)c3F)ncnc2cc1OC[C@@H]1CN(C)CC(=O)N1 Test system: Vascular endothelial growth factor receptor 2 (Homo sapiens, UniProt P35968) Read-out: IC50 Value: ?
0.05 to 1 µM

Test system Vascular endothelial growth factor receptor 2 (Homo sapiens, UniProt P35968); read-out IC50; what value for COc1cc2c(Nc3ccc(Cl)c(Cl)c3)ncnc2cc1OCC1CN(C(C)C(C)=O)CCO1 (stereo not drawn) ?
0.05 to 1 µM

Query for Vascular endothelial growth factor receptor 2 (Homo sapiens, UniProt P35968): what IC50 does the record show for COc1cc2c(Nc3ccc(F)c(Cl)c3F)ncnc2cc1OC[C@@H]1CN2CCOC[C@H]2CO1 ?
0.05 to 1 µM

# query: IC50 | item COc1cc2c(Nc3ccc(Br)c(Cl)c3)ncnc2cc1OCC1CN(C)CCO1 (stereo not drawn) | system: Vascular endothelial growth factor receptor 2 (Homo sapiens, UniProt P35968)
< 0.05 µM

Report IC50 for COc1cc2c(Nc3ccc(Br)c(F)c3F)ncnc2cc1OCC1CN(C)CCO1 (stereo not drawn) tested on Vascular endothelial growth factor receptor 2 (Homo sapiens, UniProt P35968).
< 0.05 µM

Fill in the recorded IC50 for this molecule, with Vascular endothelial growth factor receptor 2 (Homo sapiens, UniProt P35968) as test system: CCOc1cc2c(Nc3ccc(Cl)c(Cl)c3)ncnc2cc1OCC1CNCCO1 (stereo not drawn)
< 0.05 µM

Kindly state the measured IC50 obtained for COc1cc2c(Nc3ccc(Br)c(Cl)c3)ncnc2cc1O[C@H]1CO[C@H]2[C@@H]1OC[C@@H]2N1CCCC1 with Vascular endothelial growth factor receptor 2 (Homo sapiens, UniProt P35968).
1 to 20 µM

Give IC50 (Vascular endothelial growth factor receptor 2 (Homo sapiens, UniProt P35968)) of the following molecule: COc1cc2c(Nc3cc(Cl)c(Br)cc3F)ncnc2cc1OCC1CN(C)C(C)(C)CO1 (stereo not drawn)
< 0.05 µM

Kindly state the measured IC50 obtained for COc1cc2c(Nc3ccc(Cl)c(Cl)c3)ncnc2cc1OCC1CN(/C(=N/C#N)N2CCN(C)CC2)CCO1 (stereo not drawn) with Vascular endothelial growth factor receptor 2 (Homo sapiens, UniProt P35968).
< 0.05 µM

Item: COc1cc2c(Nc3ccc(Br)cc3F)ncnc2cc1OCC1CCN(C(N)=NC#N)CC1 Test system: Vascular endothelial growth factor receptor 2 (Homo sapiens, UniProt P35968) Read-out: IC50 Value: ?
< 0.05 µM
